System: Plasmodium falciparum
Assay: Inhibition of Plasmodium falciparum protein farnesyltransferase at 50 nM by scintillation proximity assay
Examples of compounds with documented inhibition follow.
Your answer should be a plain number; it is taken to be in %.

CCN(CCCCN(C1Cc2cc(C#N)ccc2N(Cc2cncn2C)C1)S(=O)(=O)c1ccccn1)C(=O)OC (stereo not drawn) ... 89

Return inhibition for the following compound: Cn1cncc1CN1CC(N(Cc2ccc(Br)cc2)S(=O)(=O)c2ccccn2)Cc2cc(C#N)ccc21 (stereo not drawn)
66

Return inhibition for the following compound: Cn1cncc1CN1CC(N(CC2CCN(S(C)(=O)=O)CC2)S(=O)(=O)c2ccccn2)Cc2cc(C#N)ccc21 (stereo not drawn)
99

Return inhibition for the following compound: Cn1cncc1CN1CC(N(CC2CCN(C(=O)c3ccc(Cl)cc3)CC2)S(=O)(=O)c2ccccn2)Cc2cc(C#N)ccc21 (stereo not drawn)
26

Return inhibition for the following compound: Cn1cncc1CN1CC(N(CCCCNC(=O)OC(C)(C)C)S(=O)(=O)c2ccccn2)Cc2cc(C#N)ccc21 (stereo not drawn)
97

Return inhibition for the following compound: COC(=O)NCCN(C1Cc2cc(C#N)ccc2N(Cc2cncn2C)C1)S(=O)(=O)c1ccccn1 (stereo not drawn)
90
